Values from patent US9249145B2

- assay_target: Jak2 (a.a. 828-1132) (Homo sapiens)
- Construct: Jak2 (a.a. 828-1132); His tag (N); made in house; host or cells: insect cells (baculovirus)
- Sequence (O60674 828-1132): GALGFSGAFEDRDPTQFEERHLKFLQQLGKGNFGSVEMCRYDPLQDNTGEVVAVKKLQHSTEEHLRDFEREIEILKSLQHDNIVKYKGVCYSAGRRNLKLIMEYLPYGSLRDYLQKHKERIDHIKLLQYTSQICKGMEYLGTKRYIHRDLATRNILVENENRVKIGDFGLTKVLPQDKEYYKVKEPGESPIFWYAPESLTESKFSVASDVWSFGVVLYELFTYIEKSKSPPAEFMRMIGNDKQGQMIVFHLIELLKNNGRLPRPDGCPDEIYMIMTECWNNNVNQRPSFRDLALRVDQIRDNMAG
- test_protocol: In vitro JAK kinase assay (HTRF, phosphorylation of biotinylated peptide), JAK2
- Type: biochemical
- details: 1 mM ATP; Examples 12-91; read-out: JAK2 IC50 (nM) @ 1 mM ATP
Counter-ions that a name gives are not always drawn.
measure: IC50

Consider the following illustrative entries.
- compound: "N#CCC(CN1CCN(C(=O)Nc2ccccc2C(F)(F)F)CC1)n1cc(-c2ncnc3[nH]ccc23)cn1 (stereo not shown)"
  measure: "IC50"
  result: "> 100 nM"
- compound: "COc1c(F)cc(C(=O)N2CCN(CC(CC#N)n3cc(-c4ncnc5[nH]ccc45)cn3)CC2)cc1F (stereo not shown)"
  measure: "IC50"
  result: "50 to 100 nM"
- compound: "N#CCC(CN1CCN(C(=O)c2ncc(C(F)(F)F)cc2F)CC1)n1ccc(-c2ncnc3[nH]ccc23)c1 (stereo not shown)"
  measure: "IC50"
  result: "> 100 nM"

-- ask Consider the compound N#CCC(CN1CCN(S(=O)(=O)c2cc(F)ccc2F)CC1)n1cc(-c2ncnc3[nH]ccc23)cn1 (stereo not shown) [Example 62, trifluoroacetate salt] and give its measured IC50.
-- reply < 10 nM

-- ask Next record, please: N#CCC(CN1CCN(C(=O)Nc2c(F)cccc2F)CC1)n1cc(-c2ncnc3[nH]ccc23)cn1 (stereo not shown)
-- reply 10 to 50 nM

-- ask Next record, please: Cc1ccc(C(=O)N2CCN(CC(CC#N)n3cc(-c4ncnc5[nH]ccc45)cn3)CC2)c(F)c1 (stereo not shown)
-- reply < 10 nM

-- ask Next record, please: N#CCC(CN1CCN(C(=O)c2ccc(Cl)cn2)CC1)n1cc(-c2ncnc3[nH]ccc23)cn1 (stereo not shown)
-- reply 10 to 50 nM
